Values were extracted from ChEMBL document CHEMBL1201862.

# Tested on: EKVX
# Experiment summary: NCI tumour cell line growth inhibition, 48 h
Active and inactive are the calls of the source. Rule as the data show it: active = GI50 up to about 1.1 µM and inactive = higher.
Select the matching outcome among yes (1) for active, no (0) for inactive

How was `C/C(CC(=O)Nc1ccc(C)c(C)c1)=N\NC(N)=O` classified in this test? no (0)

How was COc1ccc2nc(NC(=O)C(=O)C(C#N)c3ccc(CC#N)cc3)sc2c1 (stereo not drawn) classified in this test? no (0)

How was `O=C1C=CC(=O)c2c(NCC3CC3)ccc(NCC3CC3)c21` classified in this test? no (0)

How was CSc1ncc2c(n1)-c1ccccc1OC2N1CCCCC1 (stereo not drawn) classified in this test? no (0)

How was `C(=C\c1ccccc1)/Cn1nc(-c2ccccc2)nc1-c1cnccn1` classified in this test? no (0)

###

# Test system: SK-OV-3
# Experiment summary: NCI tumour cell line growth inhibition, 48 h
Activity calls are given as the source filed them. No stated cut-off is given here; in the data, active = GI50 up to about 1.1 µM and inactive = higher.
Property label: GI50

Consider the following illustrative entries.
Molecule: O=C(Nc1ccc(Sc2ccc(/N=N/c3c(O)c(S(=O)(=O)O)cc4cc(S(=O)(=O)O)ccc34)cc2)cc1)c1ccc(/N=N/c2c(O)c(S(=O)(=O)O)cc3cc(S(=O)(=O)O)ccc23)cc1
GI50: > 100 µM (inactive)
--
Molecule: Cc1ccc(S(=O)(=O)Nc2nnc(S(N)(=O)=O)s2)cc1
GI50: > 100 µM (inactive)
--
Molecule: N=C(NNS(=O)(=O)c1ccccc1)Oc1ccc(Br)cc1Br
GI50: > 100 µM (inactive)
--
Molecule: Cc1nc2nnc(C)n2c2c1C(=O)Nc1ccccc1N2
GI50: > 100 µM (inactive)
--
Molecule: O=C1CSC(/C(=C\c2ccc(Cl)cc2)c2nc3ccccc3[nH]2)=N1
GI50: 11.5 µM (inactive)

For `O=[N+]([O-])c1c(F)c(F)c2c(c1F)N(CCCCCl)c1ccccc1S2` , what is its reported GI50? 19.7 µM (inactive)

For CC1=NN(c2ccc(S(=O)(=O)O)cc2)C2(C1)SCC(=O)N2c1nc2ccccc2s1 (centres undefined) , what is its reported GI50? > 100 µM (inactive)

For `CCc1n[nH]c(=O)n1/N=C/c1ccccc1O` , what is its reported GI50? > 100 µM (inactive)

###

# Test system: CCRF-CEM
# Experiment summary: NCI tumour cell line growth inhibition, 48 h
Calls of active or inactive are those of the source. Cut-off read from the data, not from the text of the source: active = GI50 up to about 1.1 µM and inactive = higher.
Select the matching outcome among active, inactive

Molecule: Cn1c2cc([N+](=O)[O-])ccc2c(=O)c2c(O)cc3c(c21)C=CC(C)(C)O3
Class: inactive
--
Molecule: CCOC(=O)C1=C(C)N(NC(=O)Nc2ccccc2)C2(N)N(NC(=O)Nc3ccccc3)C(C)=C(C(=O)OCC)C12C#N (stereo unspecified)
Class: inactive

How was COC(=O)CC(c1cn(S(=O)(=O)c2ccc(C)cc2)c2ccccc12)C1C[C@@H](C(=O)OC)N(C(=O)OC(C)(C)C)C1=O (stereo partly specified) classified in this test? inactive

How was COc1cc2c(cc1OC)C(Cc1ccc(Oc3cc(CC4c5cc(OC)c(OC)cc5CCN4C)ccc3O)cc1)N(C)CC2 (stereo unspecified) classified in this test? inactive

###

# System: MDA-MB-231
# Experiment summary: NCI tumour cell line growth inhibition, 48 h
Calls of active or inactive are those of the source. No stated cut-off is given here; in the data, active = GI50 up to about 1.1 µM and inactive = higher.
The following compounds are listed with their measured GI50 values.

Consider the following illustrative entries.
Compound: CN(C(=O)C1(C(=O)C=[N+]=[N-])CC1)c1ccccc1
GI50: > 100 µM (inactive)

Compound: N=C(N)NS(=O)(=O)c1ccc(NCc2cccc3c(=O)c4ccc(Cl)cc4oc23)cc1
GI50: > 10.8 µM (inactive)

For CC1OC(OC2C(OC(=O)[C@]34CCC(C)(C)C[C@H]3C3=CC[C@@H]5[C@@]6(C)CC[C@H](OC7OC(CO)C(O)C(O)C7OC7OC(CO)C(O)C(O)C7O)C(C)(C)[C@@H]6CC[C@@]5(C)[C@]3(C)CC4)OCC(O)C2O)C(O)C(O)C1OC1OCC(O)C(O)C1O (stereo partly drawn) , what is its reported GI50? 7.83 µM (inactive)
